test system: HLA-A*24; test: MHC binding assay, UV-ligand exchange with beta2m ELISA (exchange yield), HLA-A*24; design: species or system human; settings: binding to HLA-A*24, UV-ligand exchange
parameter_measured: Peptide exchange (MHC class I binding score, peptide exchange yield)

substance	reported_measurement
252 (AFGQETNVPLNNF; listed as Homo sapiens) [compound 252]	++++ (>=75% = ++++)
231 (AFADVSVKF; listed as Homo sapiens) [compound 231]	++++ (>=75% = ++++)
269 (QYPYLQAFF; listed as Homo sapiens) [compound 269]	+++ (50%-75% = +++)
182 (AYAQLGYLLF; listed as Homo sapiens) [compound 182]	++++ (>=75% = ++++)

INPUT: Give Peptide exchange (MHC class I binding score, peptide exchange yield) for the following substance: 307 (GYAFTLPLF; listed as Homo sapiens) [compound 307]
OUTPUT: +++ (50%-75% = +++)

====

molecular target: HLA-A*02:01 (Homo sapiens, UniProt P04439, D140Y/D185E/D98H/E176V/E277Q/G131W/G231S/I119V/I121R/I166T/I218V/L300P/L318F/N151K/N90K/P208A/P217A/Q86G/Q94H/R138H/R169H/T345S); assay: MHC binding assay, UV-ligand exchange with beta2m ELISA (exchange yield), HLA-A*02; conditions: binding to HLA-A*02 ranged by peptide exchange yield
parameter_measured: Peptide exchange (MHC class I binding score)

Below are worked cases with known answers.
substance	reported_measurement
80 (TLDEYLTYL; listed as Homo sapiens) [compound 80]	+++ (50%-75% = +++)
330 (FLWPKEVEL; listed as Homo sapiens) [compound 330]	+++ (50%-75% = +++)
339 (VLGPGPPPL; listed as Homo sapiens) [compound 339]	++ (20%-49% = ++)
26 (KVDGVVIQL; listed as Homo sapiens) [compound 26]	+++ (50%-75% = +++)

INPUT: Give Peptide exchange (MHC class I binding score) for the following substance: 33 (LLLPLLPPLSPSLG; listed as Homo sapiens) [compound 33]
OUTPUT: +++ (50%-75% = +++)

INPUT: Give Peptide exchange (MHC class I binding score) for the following substance: 64 (GLSSSSYEL; listed as Homo sapiens) [compound 64]
OUTPUT: ++ (20%-49% = ++)

INPUT: Give Peptide exchange (MHC class I binding score) for the following substance: 87 (YLTEVFLHVV; listed as Homo sapiens) [compound 87]
OUTPUT: +++ (50%-75% = +++)

INPUT: Give Peptide exchange (MHC class I binding score) for the following substance: 81 (VLFLGKLLV; listed as Homo sapiens) [compound 81]
OUTPUT: ++ (20%-49% = ++)

INPUT: Give Peptide exchange (MHC class I binding score) for the following substance: 57 (VLISSTVRL; listed as Homo sapiens) [compound 57]
OUTPUT: ++ (20%-49% = ++)

====

test system: HLA-A*24; test: MHC binding assay, UV-ligand exchange with beta2m ELISA (exchange yield), HLA-A*24; set-up: species or system human; details: binding to HLA-A*24, UV-ligand exchange
parameter_measured: Peptide exchange (MHC class I binding score, peptide exchange yield)

substance	reported_measurement
211 (VFKSEGAYF; listed as Homo sapiens) [compound 211]	++++ (>=75% = ++++)
223 (TFITQSPLL; listed as Homo sapiens) [compound 223]	++++ (>=75% = ++++)
146 (NYYERIHAL; listed as Homo sapiens) [compound 146]	+++ (50%-75% = +++)
254 (KYLESSATF; listed as Homo sapiens) [compound 254]	+++ (50%-75% = +++)
226 (MYLKLVQLF; listed as Homo sapiens) [compound 226]	++ (20%-49% = ++)

INPUT: Give Peptide exchange (MHC class I binding score, peptide exchange yield) for the following substance: 200 (VFIHHLPQF; listed as Homo sapiens) [compound 200]
OUTPUT: +++ (50%-75% = +++)

INPUT: Give Peptide exchange (MHC class I binding score, peptide exchange yield) for the following substance: 351 (IFHEVPLKF; listed as Homo sapiens) [compound 351]
OUTPUT: +++ (50%-75% = +++)

INPUT: Give Peptide exchange (MHC class I binding score, peptide exchange yield) for the following substance: 168 (RYLEAALRL; listed as Homo sapiens) [compound 168]
OUTPUT: +++ (50%-75% = +++)

INPUT: Give Peptide exchange (MHC class I binding score, peptide exchange yield) for the following substance: 285 (VYVGDALLHAI; listed as Homo sapiens) [compound 285]
OUTPUT: +++ (50%-75% = +++)

INPUT: Give Peptide exchange (MHC class I binding score, peptide exchange yield) for the following substance: 97 (TYTFLKETF; listed as Homo sapiens) [compound 97]
OUTPUT: ++++ (>=75% = ++++)

====

tested on: HLA-A*24; assay: MHC binding assay, UV-ligand exchange with beta2m ELISA (exchange yield), HLA-A*24; parameters: species or system human; conditions: binding to HLA-A*24, UV-ligand exchange
parameter_measured: Peptide exchange (MHC class I binding score, peptide exchange yield)

Below are worked cases with known answers.
substance	subject_of_test	reported_measurement
255 (VYQKIILKF; listed as Homo sapiens) [compound 255]	HLA-A*24	+++ (50%-75% = +++)
139 (IFGIFPNQF; listed as Homo sapiens) [compound 139]	HLA-A*24	+++ (50%-75% = +++)
353 (TYGKIDLGF; listed as Homo sapiens) [compound 353]	HLA-A*24	+++ (50%-75% = +++)
241 (SYVKVLHHL; listed as Homo sapiens) [compound 241]	HLA-A*24	+++ (50%-75% = +++)
171 (NYEDHFPLL; listed as Homo sapiens) [compound 171]	HLA-A*24	+++ (50%-75% = +++)

INPUT: Give Peptide exchange (MHC class I binding score, peptide exchange yield) for the following substance: 357 (QFITSTNTF; listed as Homo sapiens) [compound 357]
OUTPUT: ++++ (>=75% = ++++)

INPUT: Give Peptide exchange (MHC class I binding score, peptide exchange yield) for the following substance: 192 (RYSTFSEIF; listed as Homo sapiens) [compound 192]
OUTPUT: +++ (50%-75% = +++)

INPUT: Give Peptide exchange (MHC class I binding score, peptide exchange yield) for the following substance: 112 (IYNFVESKL; listed as Homo sapiens) [compound 112]
OUTPUT: +++ (50%-75% = +++)

====

tested on: HLA-A*24; test: MHC binding assay, UV-ligand exchange with beta2m ELISA (exchange yield), HLA-A*24; parameters: species or system human; conditions: binding to HLA-A*24, UV-ligand exchange
parameter_measured: Peptide exchange (MHC class I binding score, peptide exchange yield)

Below are worked cases with known answers.
substance	subject_of_test	reported_measurement
304 (EYNEVANLF; listed as Homo sapiens) [compound 304]	HLA-A*24	+++ (50%-75% = +++)
225 (TYTNTLERL; listed as Homo sapiens) [compound 225]	HLA-A*24	+++ (50%-75% = +++)
105 (IYNETITDLL; listed as Homo sapiens) [compound 105]	HLA-A*24	+++ (50%-75% = +++)
145 (VYALKVRTI; listed as Homo sapiens) [compound 145]	HLA-A*24	+++ (50%-75% = +++)

INPUT: Give Peptide exchange (MHC class I binding score, peptide exchange yield) for the following substance: 229 (IYQFVADSF; listed as Homo sapiens) [compound 229]
OUTPUT: +++ (50%-75% = +++)

INPUT: Give Peptide exchange (MHC class I binding score, peptide exchange yield) for the following substance: 147 (LYLAFPLAF; listed as Homo sapiens) [compound 147]
OUTPUT: +++ (50%-75% = +++)

INPUT: Give Peptide exchange (MHC class I binding score, peptide exchange yield) for the following substance: 347 (VYAEVNSL; listed as Homo sapiens) [compound 347]
OUTPUT: +++ (50%-75% = +++)

INPUT: Give Peptide exchange (MHC class I binding score, peptide exchange yield) for the following substance: 194 (VYQSLSNSL; listed as Homo sapiens) [compound 194]
OUTPUT: +++ (50%-75% = +++)

INPUT: Give Peptide exchange (MHC class I binding score, peptide exchange yield) for the following substance: 365 (VFIDHPVHL; listed as Homo sapiens) [compound 365]
OUTPUT: ++++ (>=75% = ++++)

INPUT: Give Peptide exchange (MHC class I binding score, peptide exchange yield) for the following substance: 137 (EYLHNCSYF; listed as Homo sapiens) [compound 137]
OUTPUT: ++++ (>=75% = ++++)

INPUT: Give Peptide exchange (MHC class I binding score, peptide exchange yield) for the following substance: 227 (IYRFITERF; listed as Homo sapiens) [compound 227]
OUTPUT: +++ (50%-75% = +++)

INPUT: Give Peptide exchange (MHC class I binding score, peptide exchange yield) for the following substance: 183 (PYLQDVPRI; listed as Homo sapiens) [compound 183]
OUTPUT: +++ (50%-75% = +++)

INPUT: Give Peptide exchange (MHC class I binding score, peptide exchange yield) for the following substance: 190 (LYSELTETL; listed as Homo sapiens) [compound 190]
OUTPUT: +++ (50%-75% = +++)

INPUT: Give Peptide exchange (MHC class I binding score, peptide exchange yield) for the following substance: 260 (VYMNVMTRL; listed as Homo sapiens) [compound 260]
OUTPUT: ++++ (>=75% = ++++)

Value source: patent US10130693B2
